Measured values drawn from PubChem BioAssay (NCI) for this set.

Test system: SNB-19 CNS
Assay: NCI-60 one-dose screen, 48 h (100 = growth as untreated, 0 = no growth, -100 = all killed)
Conditions: 10 µM unless noted
This is part of a sample that, as a whole, favours compounds with a hit. Of some 83,000 tested, about 20% had one in any assay. Activity calls are given as the source filed them. The calls were made as follows: active = growth percent below 10; inactive = the rest.
Below, each entry is listed with its recorded growth.

Guide cases for growth, answers given:
In [3]: df
Out[3]:
                                   compound  tested_system               val
0  Brc1ccc2c(c1)c(-c1nc(-c3c[nH]c4ncccc34)cs1)cn2CCCN1CCCCC1     SNB-19 CNS   -68.3% (active)
1  CNC(=O)c1cc(Oc2ccc3nc(NC(=O)Nc4ccc(Cl)cc4)sc3c2)ccn1     SNB-19 CNS  59.3% (inactive)
2  CCCCC[C@H]1C/C=C2/C(=O)C(Cl)=C[C@@H]2C/C=C\CCCC(=O)O1     SNB-19 CNS   -73.4% (active)

Consider the additional compound presented here.
Report growth for `COC(=O)[C@]12CC[C@@H](C)[C@H](C)[C@@H]1C1=CC[C@@H]3[C@@]4(C)C(c5ncon5)=C[C@@](C)(CO)C4=CC[C@@]3(C)[C@]1(C)CC2` please.
6.01% (active)

----------
System: SN12C renal
Assay: NCI-60 one-dose screen, 48 h (100 = growth as untreated, 0 = no growth, -100 = all killed)
Details: 10 µM unless noted
The panel holds about 83,000 compounds, 20% with a hit somewhere; the sample as a whole holds those more often.
parameter_measured: growth (%)
# value in %; strip the unit string

>>> df
                                   compound    val
0  Nc1nc2c(c(=O)[nH]1)C(c1ccc3c(c1)OCO3)C=C(C(=O)O)N2 (stereo unspecified)    113
1  Cn1cc(-c2nc(-c3c[nH]c4ncccc34)cs2)c2cc(Cl)ccc21     54
2  c1ccc(-c2nc(Nc3ccc(-c4nc5ccccc5[nH]4)cc3)nc(N3CCOCC3)n2)cc1  -62.8
3   NCCNc1nc(-c2ccccc2)nc2nc(-c3ccccc3)oc12   80.6

For the record `O=C(N/N=C/c1ccccc1SSc1ccccc1/C=N/NC(=O)c1ccccc1)c1ccccc1` , what value of growth is listed for SN12C renal?
43.4

Similarly, `Cc1csc(Nc2nc(-c3ccc(Cl)cc3)nc(C(Cl)(Cl)Cl)n2)n1` ?
94.1

Similarly, Nc1c2c(nc3ccc(Br)cc13)CC(c1ccccc1)CC2=O (stereo unspecified) ?
51.3

Similarly, `COc1ccc(-c2nc3ccccn3c2-c2nc3ccc(Cl)cc3[nH]2)cc1` ?
97.3

Similarly, `CN1CCN(c2ccc3nc(-c4[nH]ncc4Nc4ncnc5[nH]ccc45)[nH]c3c2)CC1` ?
2.59

Similarly, `CCN(CC)CCCCCCNc1ccnc2cc(Cl)ccc12` ?
84.9

----------
Below, each entry is listed with its recorded growth.
Test system: SF-295 CNS
Assay: NCI-60 one-dose screen, 48 h (100 = growth as untreated, 0 = no growth, -100 = all killed)
Details: 10 µM unless noted
The panel holds about 83,000 compounds, 20% with a hit somewhere; the sample as a whole holds those more often. Activity calls are given as the source filed them. How the source made its calls: active means growth percent below 10; inactive means the rest.

Guide cases for growth, answers given:
>>> df
                                smiles_repr  tested_system              val
0  Cc1cc(N2CCN(C)CC2)nc(N(CCNc2ccnc3cc(Cl)ccc23)Cc2ccco2)n1     SF-295 CNS  -15.3% (active)
1  COc1cnc2c(c1)C(=O)c1c-2n(CCCNCCN2CCOCC2)c(=O)c2cc([N+](=O)[O-])ccc12     SF-295 CNS   1.52% (active)
2       Cc1ccc(/C=C(\C#N)c2cc3ccccc3n2C)cc1     SF-295 CNS   9.43% (active)

Report growth for `Cc1cc(Cl)nc(N(CCNc2ccnc3cc(Cl)ccc23)Cc2ccco2)n1` please.
59.4% (inactive)

Similarly, `C/C(=C(/c1ccccc1)c1ccc(N2C(=O)c3cccc4c(NCc5ccccc5)ccc(c34)C2=O)cc1)c1ccccc1` ?
96.2% (inactive)
